The origin of these recorded values is ChEMBL document CHEMBL4411314.

- procedureText: Metabolic stability in human liver microsomes assessed as parent compound remaining at 0.2 mM after 30 mins in presence of NADPH by HPLC-MS/MS analysis
- Assay type: ADME, Microsome
- conditionsUsed: read-out: Stability
Quick rule for you: remaining at 0.5 h, 200 µM under 70% gets yes (1), anything else gets no (0).

{"molecule": "CCN(C(=O)N1CCC(=CC#Cc2cccc(C)n2)CC1)C(C)C", "classification": "yes (1)"}
{"molecule": "O=C(c1cccc(Cl)c1)N1CCC(=CC#Cc2cccc(Cl)n2)CC1", "classification": "no (0)"}
{"molecule": "CCOC(=O)N1CCC(=CC#Cc2cccc(F)c2)CC1", "classification": "no (0)"}
{"molecule": "CCOC(=O)N1CCC(=CC#Cc2cccc(Cl)c2)CC1", "classification": "no (0)"}
{"molecule": "COC(=O)N1CCC(=CC#Cc2cccc(C)n2)CC1", "classification": "no (0)"}
{"molecule": "Cc1cccc(C#CC=C2CCN(c3ncccc3[N+](=O)[O-])CC2)n1", "classification": "yes (1)"}
{"molecule": "CCCC(=O)N1CCC(=CC#Cc2cccc(C)n2)CC1", "classification": "no (0)"}
{"molecule": "Cc1cccc(C#C/C=C2\\CCN(C(=O)N(C)C(C)C)C2)n1", "classification": "no (0)"}
{"molecule": "Cc1cccc(C#C/C=C2\\CCN(C(=O)c3cccc(Cl)c3)C2)n1", "classification": "no (0)"}
{"molecule": "Cc1cccc(C#CC=C2CCN(C(=O)N(C)C(C)c3ccccc3)CC2)n1 (centres undefined)", "classification": "yes (1)"}
{"molecule": "Cc1cccc(C#CC=C2CCN(C(=O)c3cccc(F)c3)CC2)n1", "classification": "yes (1)"}
{"molecule": "CCOC(=O)N1CCC(=CC#Cc2cccc(C)n2)CC1", "classification": "no (0)"}
{"molecule": "CCOC(=O)N1CC2(CC(=CC#Cc3cccc(C)n3)C2)C1", "classification": "no (0)"}
{"molecule": "CCOC(=O)N1CCC(=CC#Cc2cccc(C#N)c2)CC1", "classification": "no (0)"}

----------
- tgt: Cytochrome P450 1A2 (Homo sapiens, UniProt P05177)
- Sequence (P05177 whole entry): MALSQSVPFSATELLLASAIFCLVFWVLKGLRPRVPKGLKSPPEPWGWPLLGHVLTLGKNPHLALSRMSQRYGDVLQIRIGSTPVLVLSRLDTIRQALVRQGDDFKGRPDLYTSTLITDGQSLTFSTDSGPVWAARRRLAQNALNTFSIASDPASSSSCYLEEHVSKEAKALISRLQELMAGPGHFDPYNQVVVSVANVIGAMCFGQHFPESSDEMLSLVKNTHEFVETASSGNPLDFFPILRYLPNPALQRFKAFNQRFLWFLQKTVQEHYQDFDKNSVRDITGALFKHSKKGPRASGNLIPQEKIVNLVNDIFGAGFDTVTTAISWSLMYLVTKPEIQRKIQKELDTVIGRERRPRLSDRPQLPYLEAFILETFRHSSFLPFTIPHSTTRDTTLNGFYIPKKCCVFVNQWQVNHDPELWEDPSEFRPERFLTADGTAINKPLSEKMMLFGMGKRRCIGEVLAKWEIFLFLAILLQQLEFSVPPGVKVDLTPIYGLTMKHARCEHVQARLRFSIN
- procedureText: Inhibition of recombinant human CYP1A2 using 3-cyano-7-ethoxycoumarin as substrate preincubated for 10 mins followed by substrate addition and measured after 15 mins
pIC50: −log10 of the molar value.

{"chemicalStructure": "CCN(C(=O)N1CC/C(=C\\C#Cc2cccc(C)n2)C1)C(C)C", "pIC50": "< 4.70"}
{"chemicalStructure": "Cc1cccc(C#CC=C2CCN(C(=O)c3cccc(Cl)c3)CC2)n1", "pIC50": "< 4.70"}
{"chemicalStructure": "Cc1cccc(C#CC=C2CCN(S(=O)(=O)c3ccc(C#N)cc3)CC2)n1", "pIC50": "< 4.70"}
{"chemicalStructure": "CCOC(=O)N1CC/C(=C/C#Cc2cccc(C)n2)C1", "pIC50": "> 6.15"}
{"chemicalStructure": "Cc1cccc(C#C/C=C2\\CCN(C(=O)N(C)C(C)C)C2)n1", "pIC50": "< 4.70"}

----------
- procedureText: Metabolic stability in rat liver microsomes assessed as parent compound remaining at 0.2 mM after 30 mins in presence of NADPH by HPLC-MS/MS analysis
- Type: ADME, Microsome
- conditionsUsed: read-out: Stability

{"chemicalStructure": "CCN(C(=O)N1CC/C(=C\\C#Cc2cccc(C)n2)C1)C(C)C", "remaining at 0.5 h, 200 µM": "20%"}
{"chemicalStructure": "COC(=O)N1CCC(=CC#Cc2cccc(C)n2)CC1", "remaining at 0.5 h, 200 µM": "23%"}
{"chemicalStructure": "CCS(=O)(=O)N1CCC(=CC#Cc2cccc(C)n2)CC1", "remaining at 0.5 h, 200 µM": "21%"}
{"chemicalStructure": "Cc1cccc(C#CC=C2CCN(C(=O)c3cccc(Cl)c3)CC2)n1", "remaining at 0.5 h, 200 µM": "0.2%"}
{"chemicalStructure": "Cc1cccc(C#C/C=C2\\CCN(C(=O)c3cccc(Cl)c3)C2)n1", "remaining at 0.5 h, 200 µM": "55%"}
{"chemicalStructure": "CCOC(=O)N1CC/C(=C\\C#Cc2cccc(C)n2)C1", "remaining at 0.5 h, 200 µM": "35%"}
{"chemicalStructure": "CCOC(=O)N1CC/C(=C/C#Cc2cccc(C)n2)C1", "remaining at 0.5 h, 200 µM": "17%"}
{"chemicalStructure": "O=C(c1cccc(Cl)c1)N1CCC(=CC#Cc2cccc(Cl)n2)CC1", "remaining at 0.5 h, 200 µM": "64%"}
{"chemicalStructure": "Cc1cccc(C#C/C=C2\\CCN(C(=O)N(C)C(C)C)C2)n1", "remaining at 0.5 h, 200 µM": "57%"}
{"chemicalStructure": "Cc1cccc(C#CC=C2CCN(C(=O)OC(C)(C)C)CC2)n1", "remaining at 0.5 h, 200 µM": "1%"}
{"chemicalStructure": "CCCC(=O)N1CCC(=CC#Cc2cccc(C)n2)CC1", "remaining at 0.5 h, 200 µM": "1%"}
{"chemicalStructure": "Cc1cccc(C#CC=C2CCN(C(=O)c3ccccc3)CC2)n1", "remaining at 0.5 h, 200 µM": "< 1%"}
{"chemicalStructure": "Cc1cccc(C#CC=C2CCN(C(=O)OCCc3ccccc3)CC2)n1", "remaining at 0.5 h, 200 µM": "2%"}
{"chemicalStructure": "CCOC(=O)N1CCC(=CC#Cc2cccc(F)c2)CC1", "remaining at 0.5 h, 200 µM": "29%"}
{"chemicalStructure": "CCOC(=O)N1CCC(=CC#Cc2cccc(C)c2)CC1", "remaining at 0.5 h, 200 µM": "64%"}
{"chemicalStructure": "Cc1ccc(S(=O)(=O)N2CCC(=CC#Cc3cccc(C)n3)CC2)cc1", "remaining at 0.5 h, 200 µM": "< 1%"}
